tested on: NCI-H226 lung; test: NCI tumour cell line growth inhibition, 48 h
We begin with a simple list: items and their reported TGI.
Reply with just the number (in µM).

Sample records with TGI:
CN(C)c1ccccc1CN1CCCN(Cc2ccccc2N(C)C)C1c1ccncc1
38.7
COc1cc(/C=C/C(=O)c2c(C)nc3ccccc3c2C)ccc1OCCCOc1cc2c(cc1OC)C(=O)N1CCC[C@H]1C=N2
0.0616
COc1ccc(C(SCCO)(c2ccccc2)c2ccccc2)cc1
30.2
CN1CCN(c2ccc3nc(-c4ccc5nc(-c6ccc(OCCC(C)(C)C)cc6)[nH]c5c4)[nH]c3c2)CC1
52.2
CN1c2ccccc2C(C)(C)C12C=Cc1cc(O)ccc1O2 (stereo not given)
28.8
CCN1CCN(c2nc3ccc([N+](=O)[O-])cc3nc2C(=O)c2ccccc2)CC1
33.3

Input COCOc1c(C(O[Si](C)(C)C(C)(C)C)c2cnc(Sc3ccccc3)n2C)ccc(OC)c1OC (stereo not given) . Output TGI: 4.14

Briefly, TGI measured for O=C1/C(=C/c2ccccc2O)N=C(c2ccccc2)N1c1nc2ccccc2s1 : 77.8

get_value(item= Brc1ccc2c([C@H]3CN[C@@H](c4c[nH]c5cc(Br)ccc45)CN3)c[nH]c2c1 , readout=TGI) returns 20.8

Briefly, TGI measured for CCOC(=O)C(=Cc1ccc(Oc2ccccc2)cc1)C(=O)OCC : 12.1

Reported TGI for Cc1ccc(O)c(-c2cc(-c3cccc(Cl)c3)c(C#N)c(N)n2)c1 was 55.4

# TGI (molecule: COc1ccc2c(c1)C(=O)c1c-2c(Nc2ccc(Cl)cc2)nc2ccccc12 ) is 50
